test system: HT29 colon; assay: NCI tumour cell line growth inhibition, 48 h
measurement type: TGI

Study these solved cases before continuing.
compound	TGI
COC(=O)C(C(=O)C(=O)NC1=C(Cl)C(=O)c2ccccc2C1=O)c1csc(-n2nc(-c3ccccc3)cc2-c2ccccc2)n1 (stereo not drawn)	> 100 µM
CC1(C)C(O)C[C@]23CCC[C@](C)(C[C@@H](O)C12)C3 (stereo partly drawn)	> 100 µM

Switching to the query record.
Ask | Name the reported TGI value associated with the compound "NCCNc1nc(N2CCCC2)c2nc(Cl)c(NCc3ccccc3)nc2n1"
Reply | 5.46 µM

----------
tested on: MDA-MB-231 breast; experiment: NCI tumour cell line growth inhibition, 48 h
Where a SMILES comes first, the peptide text is derived from it.
The following compounds are shown together with reported TGI values.

compound	TGI
[O-][N+](CCO)(CCO)c1ncnc2nc[nH]c12	> 100 µM
COc1ccc2c(c1)CCc1c(-c3noc4c3CCc3cc(OC)ccc3-4)noc1-2	> 100 µM

Ask | Param readout= TGI; system= MDA-MB-231 breast; entry= CC(C)OCC(O)COc1ccc2ccc(=O)oc2c1 (centres undefined) ; returns value.
Reply | > 100 µM

Ask | Param readout= TGI; system= MDA-MB-231 breast; entry= CC(C)CC(NC(=O)C(CC(C)C)NC(=O)C(Cc1cnc[nH]1)NC(=O)C(C)NC(=O)C(NC(=O)C(C)NC(=O)C(Cc1c[nH]c2ccccc12)NC(=O)C(CCC(=O)O)NC(=O)C(N)Cc1ccccc1)C(C)C)C(N)=O (centres undefined) (H-FEWAVAHLL-NH2; configuration not given here) ; returns value.
Reply | > 12.5 µM
